Assignment: determine reported Ki for the given molecules.
Use nM as the unit, but write only the number.

Tested system Carbonic anhydrase 2 (Homo sapiens); Ki recorded for "NS(=O)(=O)c1ccc(CON2C(=O)c3cccnc3C2=O)cc1" was 20

Hey, Carbonic anhydrase 2 (Homo sapiens) data for "NS(=O)(=O)c1cccc(C(=O)c2cccc(C(=O)O)n2)c1" : Ki came out at 250

Carbonic anhydrase 2 (Homo sapiens) data for "NS(=O)(=O)c1ccc(CCON2C(=O)c3cccnc3C2=O)cc1" ; its Ki: 15

Entry "NS(=O)(=O)c1cc(S(N)(=O)=O)c(C(=O)c2cccc(C(=O)O)n2)cc1Cl" , tested on Carbonic anhydrase 2 (Homo sapiens), has a reported Ki of 8.99

// Ki (Carbonic anhydrase 2 (Homo sapiens)) for "NS(=O)(=O)c1ccccc1C(=O)c1cccc(C(=O)O)n1" = 280

With Carbonic anhydrase 2 (Homo sapiens) as the test system, "NS(=O)(=O)c1cc(S(N)(=O)=O)c(C(=O)c2cccc(C(=O)O)n2)c(Cl)c1C(=O)c1cccc(C(=O)O)n1" showed Ki of 12

Given the molecule "NS(=O)(=O)c1ccc(C(=O)c2cccc(C(=O)O)n2)c(Cl)c1" and test system Carbonic anhydrase 2 (Homo sapiens), the measured Ki is 44
